Tested on: Amaranthus retoflexus (AMARE)
Experiment notes: Example B pre-emergence herbicidal test, glasshouse
Format: in vivo
Study conditions: Amaranthus retroflexus, 312 h, rate 1000 g/ha, evaluated after 13 days, 100=total damage to plant, 0=no damage to plant
Property name: pest or weed control at 1000 g/ha (%)
# output: bare number, implied unit %

Past entries and their recorded results:
According to the records, this compound Cc1sc(-c2cc(Cl)ccc2Cl)nc1C1C(=O)C(C)(C)C(=O)C(C)(C)C1=O [Compound T10] displays pest or weed control at 1000 g/ha of 0

According to the records, this compound Cc1sc(-c2ccc(F)cc2)nc1C1C(=O)C(C)(C)C(=O)C(C)(C)C1=O [Compound T8] displays pest or weed control at 1000 g/ha of 0

According to the records, this compound CCc1sc(-c2ccc(Cl)cc2)nc1C1=C(OC(=O)C(C)(C)C)C(C)(C)OC(C)(C)C1=O [Compound P2] displays pest or weed control at 1000 g/ha of 80

According to the records, this compound Cc1ocnc1C1C(=O)C(C)(C)C(=O)C(C)(C)C1=O [Compound T2] displays pest or weed control at 1000 g/ha of 50

According to the records, this compound COC(=O)c1ccc(-c2cc(C3C(=O)C(C)(C)OC(C)(C)C3=O)c(C)s2)cc1 [Compound T20] displays pest or weed control at 1000 g/ha of 80

***
According to the records, this compound Cc1sc(OCc2cnc(Br)s2)nc1C1C(=O)C(C)(C)OC(C)(C)C1=O [Compound T14] displays pest or weed control at 1000 g/ha of 0
